target: pooled human IgG (human IgG1, 2, 3 and 4)
# Enzyme Activity Endpoint Assay: Fab′2 values compiled below
Give just the numeric value; ng/µL need not be written.

protein="PRT-442 (protein) MSQTEDSESLQRLRDIEDFQAEKKKQNVVYTKWLDGVDVKDHDFRKIVDGNIAYYATPLLNGRGFYDINKDFNRDNDKCAAAVAANMFHYWLDRNRDNVDRFLRQNPEKHGIIELPDGQLKLSDFLNTYESDDGYRDKSKLFDFISNNFNGPVWTDKLLDNYINGYAYNYKYGRTIEDPTKNTSKINFFKEVFNEKILTNNHSIRNQNEFSVLLSEALYTGKAIGLSYGPAGLRHSLGHIISVWGADLDADGNVVAIYVTDSDDKKLTIGDERVGLKRYKISTDDEGRLRLTAYEETHNTGGQIRGLWTLDTGKQAWADYFDKTEQTGTDQAEQ" unit_symbol=ng/µL meas_value=18

Here is the next item to consider.
I'd like to know its Enzyme Activity Endpoint Assay: Fab′2. The protein in question is PRT-390 (protein) MVTSVWTKGVTPPTNFTYGEDVLHAPYVANQGWYDITKTFNGKDDLLCGAATAGNMLHWWFDQNKEQIENYLKKHPEKQKINFNGEQLFDVKEAIDTKDSQLDSKLFEYFKEKAFPYLSTKHLGVFPDHVIDMFINGYRLSLTNHGPTPVKRGSKDPRGGIFDAVFTRGDQSKLLTNRHDFKEKTLKEISDLIKQELTEGKALGISHTYANVRINHVINLWGADFDAEGNLEAIYVTDSDSNASIGMKKYFVGVNSNGKVAISAKEIEEDNIGAQVLGLFTLSTGQDIWNQTN
578
